Tested on: BXPC-3
Protocol Notes: Antiproliferative activity against human BxPC3 cells after 72 hrs by CCK8 assay
Experimental Setup: BXPC-3, 72 h
pIC50: −log10 of the molar value.
Measurement Type: pIC50

Use the examples below as a reference point.
Chemical String	pIC50
CNC(=O)c1ccccc1Nc1nc(Nc2ccc(Oc3ccc(NS(C)(=O)=O)cc3)cc2)ncc1Cl	4.85
Nc1ccn([C@@H]2O[C@H](CO)[C@@H](O)C2(F)F)c(=O)n1	4.69
CNC(=O)c1ccccc1Nc1nc(Nc2ccc(NS(=O)(=O)c3ccc(C)cc3)cc2)ncc1Cl	4.71

1 = CNC(=O)c1ccccc1Nc1nc(Nc2ccc(NS(=O)(=O)c3ccc(C)cc3)c(OC)c2)ncc1Cl
2 = CNC(=O)c1ccccc1Nc1nc(Nc2ccc(Oc3ccc(NS(=O)(=O)C(F)(F)F)cc3)cc2)ncc1Cl
Lookup: For this pair, 1 and 2 , which shows a numerically higher pIC50? Please respond with the label that marks your chosen entry.
Found: 2
(2: 5.23, 1: 4.65)
